# System: HCT8DDP
# assayMethodText: Inhibition of cell growth (cells counted on Coulter Counter after six days)
# Assay type: cell-based, human
# assaySetup: Homo sapiens; HCT8DDP; treated 24 h after plating, counted six days later; mean + SD; read-out: Ganciclovir EC50
recordedEndpoint: pEC50
Lab note — pEC50 values are minus log10 of concentrations in M.

The compound `Nc1nc(O)c2ncn(COC(CO)CO)c2n1` showed pEC50 equal to 4.40

----------
# Test system: HCT8S
# assayMethodText: Inhibition of cell growth (cells counted on Coulter Counter after six days)
# Format: cell-based, human
# assaySetup: (C) continuous exposure, read-out: EC50
recordedEndpoint: EC50 (µM)
# unit: µM | format: bare number

Example cases with answers are listed next.
Nc1nc2c(ncn2[C@H]2CC[C@@H](CO)O2)c(=O)[nH]1 [ddG, 2′,3′-dideoxyquanosene]; 35
NC(=O)c1ncn([C@@H]2O[C@H](CO)[C@@H](O)[C@H]2O)n1 [Ribovirin]; 70
Nc1ncnc2c1ncn2[C@@H]1O[C@H](CO)C[C@H]1O [Cordicpin]; 110
Nc1ncnc2c1ncn2[C@H]1CC[C@@H](CO)O1 [ddA, 2′3′-dideoxyadenosine]; 33
Cc1cn([C@H]2C[C@H](N=[N+]=[N-])[C@@H](CO)O2)c(=O)[nH]c1=O [AZT, 3′ azido-2′, 3′ dideoxythymidine]; 5.5

Could you now look at the following compound, please?
The compound NC(=O)NO [NU, hydroxyurea] showed EC50 equal to 100

----------
# Test system: HCT8DDP
# assayMethodText: Inhibition of cell growth (cells counted on Coulter Counter after six days)
# Assay type: cell-based, human
# assaySetup: HCT8-DDP; (1h) exposure; read-out: EC50
recordedEndpoint: pEC50
Lab note — pEC50 values are minus log10 of concentrations in M.

Let me check: N.N.[Cl][Pt][Cl] [Cisplatin, cisplatin] , system HCT8DDP, measured pEC50 is 4.00
